biological target: human alpha-synuclein oligomers (human, UniProt P37840 1-140); assay: competition ELISA: oligomers titrated in solution against 0.6 nM antibody, free antibody read on aSyn-coated plate
Recorded pIC50 for the following binders
Field pIC50 (float): negative decimal logarithm of the concentration in molar.

Some entries whose results are on file:
binder	pIC50
22D11 (antibody, rat IgG1, V domains shown, also called clone 22D11) VH: AVQFVESGGGLVRPKESLKISCTASGFTFTNAAIYWVRQAPGKGLECIARIRTKPNNYATYYADSVRGRFTISRDDSKPMVYLQMNELKTEDTAMYYCAADASRGDYWGQGVMVTVSS VL: DIQMTQSPSVLSASVGDRVTFSCKASQNINKNLDWYQQKLGEVPKVLIYFTNNLQTGIPSRFSGSGSGTDYTLTISSLQPEDVATYYCYQYTSGFTFGAGTKLELK	7.82
1H5 (antibody, rat IgG2b, V domains shown, also called clone 1H5) VH: AVQLVESGGGLVQPKESLKISCAASGFTFSDAAMYWVRQAPGKGLELVARIRTKPNNYATYYADSVKGRFTISRDDSKSMVYLQMGNLKTEDTAMYYCSADFHYFDYWGQGVMVTVSS VL: DIQMTQSPSVLSASVGDRVTLSCKAGQNINKNLDWYQQKLGEAPKLLISFTNNLQTGVPSRFSGSGSGSDYTLTISSLQPEDVATYYCYQYNSGWTFGGGTKLELK	7.51

## Input # return recorded pIC50 for input 18B4 (antibody, IgG2b, V domains shown, also called clone 18B4) VH: EVQLVESGGGLVQPGRSLKLSCAASGFTFSSFAMAWVRQAPKKGLEWVATITSGGSKTYYPDSVKGRFTISRDNAKSTLYLQMDSLRSEDTATYYCAKGYFDYWGQGVMVTVSS VL: DVVLTQTPPTLSATIGQSVSISCRSSQSLLHSNGNTYLHWLLQRPGQSPQLLIYLVSRLESGVPNRFSGSGSGTDFTLKISGVEAEDLGVYYCVQGTHAPLTFGSGTKLEIK
## Output 7.42
